biological target: human TLR9 (Homo sapiens, UniProt Q9NR96); assay: TLR9 inhibition reporter assay (HEK-Blue cells, SEAP reporter, ODN2006 stimulation); details: HEK-Blue cells overexpressing human TLR9, SEAP reporter, ODN2006 5 nM
Sequence (Q9NR96 26-1032): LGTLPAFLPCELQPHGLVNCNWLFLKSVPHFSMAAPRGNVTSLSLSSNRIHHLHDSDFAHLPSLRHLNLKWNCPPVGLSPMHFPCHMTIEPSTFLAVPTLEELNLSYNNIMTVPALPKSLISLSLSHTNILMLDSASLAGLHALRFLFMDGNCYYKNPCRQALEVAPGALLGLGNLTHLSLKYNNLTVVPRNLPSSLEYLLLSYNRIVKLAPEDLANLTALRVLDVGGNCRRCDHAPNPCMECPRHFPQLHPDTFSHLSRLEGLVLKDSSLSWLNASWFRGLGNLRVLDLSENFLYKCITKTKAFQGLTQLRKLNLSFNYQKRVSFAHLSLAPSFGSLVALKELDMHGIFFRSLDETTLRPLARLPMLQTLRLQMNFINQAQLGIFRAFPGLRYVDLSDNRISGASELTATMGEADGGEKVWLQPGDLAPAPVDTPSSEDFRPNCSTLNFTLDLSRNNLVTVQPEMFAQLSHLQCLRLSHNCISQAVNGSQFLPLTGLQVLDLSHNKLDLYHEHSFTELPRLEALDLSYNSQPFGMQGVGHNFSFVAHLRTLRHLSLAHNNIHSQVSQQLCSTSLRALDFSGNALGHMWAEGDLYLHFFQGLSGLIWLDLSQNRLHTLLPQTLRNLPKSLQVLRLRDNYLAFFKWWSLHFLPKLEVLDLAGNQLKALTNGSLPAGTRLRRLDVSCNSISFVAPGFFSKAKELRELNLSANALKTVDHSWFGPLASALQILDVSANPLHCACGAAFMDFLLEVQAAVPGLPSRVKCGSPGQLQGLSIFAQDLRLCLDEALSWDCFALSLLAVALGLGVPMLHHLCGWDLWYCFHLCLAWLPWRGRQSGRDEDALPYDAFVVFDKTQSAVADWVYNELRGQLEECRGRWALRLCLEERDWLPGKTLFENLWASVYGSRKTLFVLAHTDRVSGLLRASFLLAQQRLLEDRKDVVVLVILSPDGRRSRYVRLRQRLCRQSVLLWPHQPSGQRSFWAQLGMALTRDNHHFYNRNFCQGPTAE
Counter-ions that a name gives are not always drawn.
measurementLabel: IC50 (µM)

{"columns": ["molecule", "recordedNumber"],
 "data": [
  ["Cc1cc2ncnn2cc1-c1[nH]c2sc(C3CCC(NC4CCOCC4)CC3)nc2c1C(C)C (single isomer, unassigned) [Example 160]", 5.3],
  ["Cc1c(-c2[nH]c3sc(N4CCNC[C@H]4C)nc3c2C(C)C)cn2ncnc2c1C [Example 308, HCl]", 15.8],
  ["Cc1cc2ncnn2cc1-c1[nH]c2sc(C3CCC(NC4COC4)CC3)nc2c1C(C)C (single isomer, unassigned) [Example 152]", 20.9]
]}

a: COc1cc(-c2[nH]c3sc(C4CCN(C5COC5)CC4)nc3c2C(C)C)cn2ncnc12
b: COc1cc(-c2[nH]c3sc(C4CCN(CC(=O)N(C)C)CC4)nc3c2C(C)C)cn2ncnc12
c: COc1cc(-c2[nH]c3sc(C4CCC(N5CCC5)CC4)nc3c2C(C)C)cn2ncnc12 (single isomer, unassigned) [Example 77]
d: Cc1c(-c2[nH]c3sc(C4CCC(NCC(C)(C)O)CC4)nc3c2C(C)C)cn(C)c(=O)c1C (single isomer, unassigned) [Example 251]
Q. # rank by IC50, ascending (min first) Sort the labels as requested; that list is your answer.
A. c, b, a, d
(c: 3.27 µM, b: 5.47 µM, a: 18.5 µM, d: 45.3 µM)
